- tested.on: T1, Sumo-ELL2^Occ, wild type (human, UniProt O00472 519-640)
- T1 sequence (looked up): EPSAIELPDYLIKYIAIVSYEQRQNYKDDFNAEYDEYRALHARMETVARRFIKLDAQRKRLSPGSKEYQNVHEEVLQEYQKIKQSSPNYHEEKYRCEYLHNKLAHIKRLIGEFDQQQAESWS
- method: fluorescence polarisation
- experimental.conditions: both partners purified
Measured other accompanies every entry in the list below.
Respond with the bare value in fold.

INSERT INTO results (binder, test_value) VALUES
  ('His-tagged AFF4^ELLBow (301–351) double 328–329 Pro–Gly mutant (peptide, UniProt Q9UHB7 301-351, looked up) PSQPLDASASGDVSCVDEILKEMTHSWGGPLTAIHTPCKTEPSKFPFPTKE', 3),
  ('His-tagged AFF4^ELLBow (301–351) W327D (peptide, UniProt Q9UHB7 301-351, looked up) PSQPLDASASGDVSCVDEILKEMTHSDPPPLTAIHTPCKTEPSKFPFPTKE', 4);

Continue with the next binder.
Record His-tagged AFF4^ELLBow (301–351) I334D (peptide, UniProt Q9UHB7 301-351, looked up) PSQPLDASASGDVSCVDEILKEMTHSWPPPLTADHTPCKTEPSKFPFPTKE . Reported other: 8

These entries and their values trace back to paper PMC5290273.
